molecular target: Estrogen receptor (Homo sapiens, UniProt P03372); assay: Antagonist activity at estrogen receptor in human Ishikawa cells assessed as 17-beta-estradiol-induced alkaline phosphatase activity after 3 days by chemiluminescence assay; format: functional, cell-based
Sequence (P03372 whole entry): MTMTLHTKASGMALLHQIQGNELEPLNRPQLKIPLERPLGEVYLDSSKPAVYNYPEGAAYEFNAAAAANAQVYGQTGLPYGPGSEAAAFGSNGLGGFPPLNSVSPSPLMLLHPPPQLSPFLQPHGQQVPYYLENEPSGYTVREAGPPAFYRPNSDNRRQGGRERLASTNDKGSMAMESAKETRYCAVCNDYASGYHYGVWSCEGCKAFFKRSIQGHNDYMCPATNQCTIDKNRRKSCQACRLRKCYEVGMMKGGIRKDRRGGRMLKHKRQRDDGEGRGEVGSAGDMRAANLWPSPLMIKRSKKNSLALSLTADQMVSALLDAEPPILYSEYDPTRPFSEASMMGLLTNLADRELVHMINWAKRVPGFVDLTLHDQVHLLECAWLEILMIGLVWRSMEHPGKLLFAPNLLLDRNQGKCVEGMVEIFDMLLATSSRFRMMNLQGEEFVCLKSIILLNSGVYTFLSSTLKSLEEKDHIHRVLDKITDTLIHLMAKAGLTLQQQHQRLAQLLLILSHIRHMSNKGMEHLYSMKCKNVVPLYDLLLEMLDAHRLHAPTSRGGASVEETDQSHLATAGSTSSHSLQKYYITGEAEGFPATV
Recorded Metric: pIC50
One number for each entry, as −log10 of the molar value.

# annotated cases, reported pIC50 shown
CN(C)CCOc1ccc([C@H]2Oc3cc(O)ccc3C3=C2c2ccccc2OCC3)cc1 | 5.05
COc1ccc2c(c1)O[C@@H](c1ccc(OCCN3CCCCC3)cc1)C1=C2CCOc2cc(O)ccc21 | 7.59
CN1CCN(CCOc2ccc([C@H]3Oc4cc(O)ccc4C4=C3c3ccc(O)cc3OCC4)cc2)CC1 | 7.05
COc1ccc2c(c1)O[C@H](c1ccc(OCCN3CCCCC3)cc1)C1=C2CCOc2cc(O)ccc21 | 6.59
COc1ccc2c(c1)OCCC1=C2[C@H](c2ccc(OCCN3CCCCC3)cc2)Oc2cc(O)ccc21 | 6.82

Parameter requested: pIC50. Apply to each item below.
1. Oc1ccc2c(c1)O[C@H](c1ccc(OCCN3CCCCCC3)cc1)C1=C2CCOc2ccccc21
2. Oc1ccc2c(c1)O[C@@H](c1ccc(OCCN3CCCCC3)cc1)C1=C2CCOc2ccccc21
3. Oc1ccc2c(c1)O[C@@H](c1ccc(OCCN3CCCC3)cc1)C1=C2CCOc2cc(O)ccc21
4. Oc1ccc2c(c1)O[C@H](c1ccc(OCCN3CCSCC3)cc1)C1=C2CCOc2cc(O)ccc21

Result:
[5.57, 7.59, 6.78, 7.06]

###

organism: Rattus norvegicus; assay: animal or person; format: functional; conditions: Uterus, 72 h, route oral
Hi there, I'd appreciate the recorded inhibition in vivo at 1 mg/kg for every entry that follows.
Give bare numbers, in %.

Parameter requested: inhibition in vivo at 1 mg/kg. Apply to each item below.
1. Oc1ccc2c(c1)O[C@H](c1ccc(OCCN3CCCCCC3)cc1)C1=C2CCOc2ccccc21
2. Oc1ccc2c(c1)O[C@@H](c1ccc(OCCCN3CCCCC3)cc1)C1=C2CCOc2cc(O)ccc21

Result:
1. 11
2. 15

Parameter requested: inhibition in vivo at 1 mg/kg. Apply to each item below.
1. Oc1ccc2c(c1)O[C@H](c1ccc(OCCN3CCSCC3)cc1)C1=C2CCOc2cc(O)ccc21
2. Oc1ccc2c(c1)O[C@@H](c1ccc(OCCN3CCOCC3)cc1)C1=C2CCOc2cc(O)ccc21
3. CN(C)CCOc1ccc([C@@H]2Oc3ccccc3C3=C2c2ccc(O)cc2OCC3)cc1

Result:
85
0
18

###

assay: Cmax in rats after 2 mg/kg intravenous dose; type: ADME, organism-based; design: dose 2 mg/kg, route intravenous; details: rat, in vivo
Recorded Metric: Cmax (ng/mL)
Answers are plain numbers, in ng/mL.

GET /value?item= COc1ccc2c(c1)O[C@H](c1ccc(OCCN3CCCCC3)cc1)C1=C2CCOc2cc(OC)ccc21 &field=Cmax returns 1040

###

Hi there, I'd appreciate the recorded inhibition in vivo at 1 mg/kg for every entry that follows.
organism: Rattus norvegicus; experiment: animal or person; assay type: functional; settings: Uterus, 72 h, route oral
Answers are plain numbers, in %.

Oc1ccc2c(c1)O[C@@H](c1ccc(OCCN3CCSCC3)cc1)C1=C2CCOc2cc(O)ccc21 | 0

Parameter requested: inhibition in vivo at 1 mg/kg. Apply to each item below.
1. OCCCOc1ccc(C2Oc3cc(O)ccc3C3=C2c2ccc(O)cc2OCC3)cc1 (stereo unspecified)
2. Oc1ccc2c(c1)O[C@H](c1ccc(OCCN3CCOCC3)cc1)C1=C2CCOc2cc(O)ccc21
3. Oc1ccc2c(c1)OC(c1ccc(OCCN3CCCCC3)cc1)C1=C2CCCOc2cc(O)ccc21 (single isomer, unassigned; (+))
4. O=C1CCC(=O)N1CCCOc1ccc([C@H]2Oc3cc(O)ccc3C3=C2c2ccc(O)cc2OCC3)cc1
5. Oc1ccc2c(c1)OCCC1=C2[C@@H](c2ccc(OCCN3CCCCCC3)cc2)Oc2cc(F)ccc21

Result:
1: 0; 2: 40; 3: 33; 4: 0; 5: 22

Where these numbers come from: ChEMBL document CHEMBL1153760
